Target: purified recombinant human Aggrecanase-2 (Agg2-Phe628) (Homo sapiens, UniProt Q9UNA0)
Construct: (Agg2-Phe628) (MW=41,737), which is a truncated form of full-length human aggrecanase-2; made in house; host or cells: CHO cells
Sequence (Q9UNA0 262-628 limits assumed): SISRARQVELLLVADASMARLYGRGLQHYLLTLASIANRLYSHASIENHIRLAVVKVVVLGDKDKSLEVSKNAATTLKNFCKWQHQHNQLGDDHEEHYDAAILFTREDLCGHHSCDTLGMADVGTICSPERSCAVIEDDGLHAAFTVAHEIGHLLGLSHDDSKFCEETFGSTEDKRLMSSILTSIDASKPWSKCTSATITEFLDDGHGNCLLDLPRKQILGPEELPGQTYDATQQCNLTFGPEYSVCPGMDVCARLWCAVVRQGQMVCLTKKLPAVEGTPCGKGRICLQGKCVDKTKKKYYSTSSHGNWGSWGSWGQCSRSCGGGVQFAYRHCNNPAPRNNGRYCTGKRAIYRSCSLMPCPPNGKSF
Assay: Aggrecanase 2 continuous in vitro fluorescence assay
Type: biochemical
Details: Agg2-Phe628 0.5 μg/ml, substrate 25 μM, 30° C.; read-out: IC50
Sorting guide: entries reporting IC50 beneath 10 µM go in the true (1) pile, the rest go in the false (0) pile.

These recorded examples may help you get a feel for the data.
COc1ccc(C2=NNC3(S2)C(=O)Nc2cc(Cl)ccc23)cc1 (centres unmarked): true (1)
Cc1ccc(C2=NNC3(S2)C(=O)N(Cc2ccccc2)c2ccc(C)cc23)cc1 (centres unmarked): true (1)
O=C1Nc2cc(F)c(F)cc2C12NN=C(c1ccccc1)S2 (centres unmarked): false (0)
O=C1Nc2ccc(Br)cc2C12NN=C(c1ccccc1)S2 (centres unmarked): false (0)

Here is the next item to consider.
In: Find out if reported IC50 for CCc1ccc2c(c1)C1(NN=C(c3cccc(OC)c3)S1)C(=O)N2 (centres unmarked) is less than 10 µM
Out: true (1)

###

Biological target: purified recombinant human Aggrecanase-2 (Agg2-Phe628) (Homo sapiens, UniProt Q9UNA0)
Construct: (Agg2-Phe628) (MW=41,737), which is a truncated form of full-length human aggrecanase-2; made in house; host or cells: CHO cells
Experiment: Aggrecanase 2 continuous in vitro fluorescence assay
Type: biochemical
Details: Agg2-Phe628 0.5 μg/ml, substrate 25 μM, 30° C.; read-out: IC50
value kind: log10 of IC50 (log10 of the value in µM)
For clarity, the numbers are log10 values of IC50 expressed in µM.

Previously resolved entries follow.
COc1ccc(C2=NNC3(S2)C(=O)Nc2c3ccc(Cl)c2C)cc1 (stereo not drawn): 0.02
COc1ccc(C2=NNC3(S2)C(=O)Nc2c(C)cc(C)cc23)cc1 (stereo not drawn): 0.49
COc1ccc(C2=NNC3(S2)C(=O)Nc2ccc([N+](=O)[O-])cc23)cc1 (stereo not drawn): 0.65
COc1ccc(C2=NNC3(S2)C(=O)N(c2ccc(Cl)c(Cl)c2)c2ccc(C)cc23)cc1 (stereo not drawn): 0.10
COc1ccc(C2=NNC3(S2)C(=O)N(c2ccccc2C)c2ccc(C)cc23)cc1 (stereo not drawn): -0.05

In: Input CC(=O)N1C(=O)C2(NN=C(c3ccccc3)S2)c2ccccc21 (stereo not drawn) , output reported log10 of IC50.
Out: 1.10

In: State, in one line, measured log10 of IC50 of CCCc1ccc2c(c1)N(Cc1ccccc1)C(=O)C21NN=C(c2ccc(OC)cc2)S1 (stereo not drawn)
Out: -0.02

In: Item CCc1ccc2c(c1)C1(NN=C(c3ccc(F)cc3)S1)C(=O)N2 (stereo not drawn) : provide log10 of IC50
Out: 0.47

###

Biological target: purified recombinant human Aggrecanase-2 (Agg2-Phe628) (Homo sapiens, UniProt Q9UNA0)
Construct: (Agg2-Phe628) (MW=41,737), which is a truncated form of full-length human aggrecanase-2; made in house; host or cells: CHO cells
Sequence (Q9UNA0 262-628 limits assumed): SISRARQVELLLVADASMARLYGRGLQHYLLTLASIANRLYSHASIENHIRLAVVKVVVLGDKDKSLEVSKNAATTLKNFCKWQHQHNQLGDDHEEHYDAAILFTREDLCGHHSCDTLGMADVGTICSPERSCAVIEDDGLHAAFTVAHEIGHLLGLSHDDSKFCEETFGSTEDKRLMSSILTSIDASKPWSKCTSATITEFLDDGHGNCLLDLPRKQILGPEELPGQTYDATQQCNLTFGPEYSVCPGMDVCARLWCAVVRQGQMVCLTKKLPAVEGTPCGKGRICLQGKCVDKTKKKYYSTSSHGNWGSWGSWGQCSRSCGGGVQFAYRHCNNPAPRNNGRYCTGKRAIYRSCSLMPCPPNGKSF
Assay: Aggrecanase 2 continuous in vitro fluorescence assay
Assay type: biochemical
Conditions: Agg2-Phe628 0.5 μg/ml, substrate 25 μM, 30° C.; read-out: IC50
value kind: IC50 (nM)
Provide the reading as a plain figure in nM.

CCCC(=O)N1C(=O)C2(NN=C(c3ccc(C)cc3)S2)c2cc(CC)ccc21 (stereo not drawn) [Compound 45]: 1450

In: Please look at CCCC(=O)N1C(=O)C2(NN=C(c3ccc(OC)cc3)S2)c2cc(CC)ccc21 (stereo not drawn) [Compound 46] and tell me its recorded IC50 on purified recombinant human Aggrecanase-2 (Agg2-Phe628) (Homo sapiens, UniProt Q9UNA0).
Out: 1520

In: Quote IC50 with test system purified recombinant human Aggrecanase-2 (Agg2-Phe628) (Homo sapiens, UniProt Q9UNA0) for COc1ccc(C2=NNC3(S2)C(=O)N(c2ccc(Cl)cc2)c2ccc(C)cc23)cc1 (stereo not drawn) [Compound 25]
Out: 1480

In: # return IC50 of CCc1ccc2c(c1)C1(NN=C(c3ccc(C(C)(C)C)cc3)S1)C(=O)N2 (stereo not drawn) [Compound 44] (system: purified recombinant human Aggrecanase-2 (Agg2-Phe628) (Homo sapiens, UniProt Q9UNA0))
Out: 1660

###

Target: purified recombinant human Aggrecanase-2 (Agg2-Phe628) (Homo sapiens, UniProt Q9UNA0)
Construct: (Agg2-Phe628) (MW=41,737), which is a truncated form of full-length human aggrecanase-2; made in house; host or cells: CHO cells
Experiment: Aggrecanase 2 continuous in vitro fluorescence assay
Assay type: biochemical
Conditions: inhibitor concentration not given
The label depends only on % Inhibition: T if it is at least 10%, F if it is smaller.

Illustrative cases are given below, each with its answer.
COc1ccc2c(c1)C1(NN=C(c3ccccc3)S1)C(=O)N2 (stereo not drawn): T
COc1ccc(C2=NNC3(S2)C(=O)Nc2cccc(N4CCN(Cc5ccccc5)CC4)c23)cc1 (stereo not drawn): T
CCc1ccc2c(c1)C1(NN=C(c3ccc(C)cc3)S1)C(=O)N2 (stereo not drawn): F

In: Identify whether the reported % Inhibition of the following compound is 10% or greater: Cc1ccc(C2=NNC3(S2)C(=O)Nc2ccc(C)cc23)cc1 (stereo not drawn)
Out: F

In: Quick check, % Inhibition >= 10%? Cc1ccc(C2=NNC3(S2)C(=O)N(C)c2ccccc23)cc1 (stereo not drawn)
Out: F

In: Assess whether reported % Inhibition for Cc1ccc(C2=NNC3(S2)C(=O)Nc2ccccc23)cc1 (stereo not drawn) sits at 10% or higher.
Out: F

In: Threshold query (% Inhibition >= 10%) on COc1ccc(C2=NNC3(S2)C(=O)N(c2ccc(C)cc2)c2ccc(C)cc23)cc1 (stereo not drawn)
Out: T

In: Dear colleague, could you confirm whether O=C1Nc2c(Cl)ccc(Cl)c2C12NN=C(c1ccccc1)S2 (stereo not drawn) has % Inhibition at or above 10%?
Out: T

In: // inclusive: % Inhibition at least 10%? input: CCc1ccc2c(c1)C1(NN=C(c3ccccc3)S1)C(=O)N2 (stereo not drawn)
Out: F

###

Biological target: purified recombinant human Aggrecanase-2 (Agg2-Phe628) (Homo sapiens)
Construct: (Agg2-Phe628) (MW=41,737), which is a truncated form of full-length human aggrecanase-2; made in house; host or cells: CHO cells
Assay: Aggrecanase 2 continuous in vitro fluorescence assay
Format: biochemical
Details: Agg2-Phe628 0.5 μg/ml, substrate 25 μM, 30° C.; read-out: IC50
This section presents compounds with their documented IC50 values.
A number alone suffices; assume nM.

In: Note IC50 for the compound shown: CCc1ccc2c(c1)C1(NN=C(c3ccc(OC)cc3)S1)C(=O)N2 (centres unmarked) [Compound 29]
Out: 1360

In: Determine its reported IC50: CCCc1ccc2c(c1)NC(=O)C21NN=C(c2ccc(OC)cc2)S1 (centres unmarked) [Compound 15]
Out: 775

###

Target: purified recombinant human Aggrecanase-2 (Agg2-Phe628) (Homo sapiens)
Construct: (Agg2-Phe628) (MW=41,737), which is a truncated form of full-length human aggrecanase-2; made in house; host or cells: CHO cells
Assay: Aggrecanase 2 continuous in vitro fluorescence assay
Assay type: biochemical
Conditions: Agg2-Phe628 0.5 μg/ml, substrate 25 μM, 30° C.; read-out: IC50
value kind: IC50 (µM)
Numbers only; they are read as µM.

Here is how some compounds turned out for IC50.
COc1ccc(C2=NNC3(S2)C(=O)N(c2cccc([N+](=O)[O-])c2)c2ccc(C)cc23)cc1 (stereo not drawn): 0.995
CCCc1ccc2c(c1)NC(=O)C21NN=C(c2ccc(C)cc2)S1 (stereo not drawn): 1.4

In: Return the recorded IC50 value; entry: COc1ccc(C2=NNC3(S2)C(=O)Nc2ccc(Br)cc23)cc1 (stereo not drawn)
Out: 2.41

In: Please list IC50 recorded for the compound O=C1N(c2ccccc2)c2ccccc2C12NN=C(c1ccccc1)S2 (stereo not drawn)
Out: 2.62

In: Supply reported IC50 belonging to this compound: COc1ccc(C2=NNC3(S2)C(=O)Nc2cc(C)ccc23)cc1 (stereo not drawn)
Out: 1.4

In: Give the reported value of IC50 for this record: COc1ccc(C2=NNC3(S2)C(=O)Nc2c(C)cccc23)cc1 (stereo not drawn)
Out: 3.75

In: Given the compound Cc1ccc(C2=NNC3(S2)C(=O)N(c2ccccc2C)c2ccc(C)cc23)cc1 (stereo not drawn) , write its reported IC50.
Out: 1.22

In: Return IC50 (reported value) for this compound: COc1ccc(C2=NNC3(S2)C(=O)Nc2ccc(C)cc23)cc1 (stereo not drawn)
Out: 2.53

In: Please list IC50 recorded for the compound COc1ccc(C2=NNC3(S2)C(=O)Nc2c3ccc(C)c2OC)cc1 (stereo not drawn)
Out: 5.92

In: Provide IC50 value for the following compound: O=C1Nc2ccccc2C12NN=C(c1ccccc1)S2 (stereo not drawn)
Out: 30

In: Consider the compound CN1C(=O)C2(NN=C(c3ccccc3)S2)c2ccccc21 (stereo not drawn) . State its measured IC50.
Out: 24.1

In: Using known records, supply IC50 for O=C1Nc2ccc(OC(F)(F)F)cc2C12NN=C(c1ccccc1)S2 (stereo not drawn)
Out: 7.22
